Tested on: MCF7
test protocol: Antiproliferative activity against human MCF7 cells after 72 hrs
Type: functional, cell-based
condition details: MCF7, 72 h
metric name: IC50 (µM)

Some entries whose results are on file:
CCCO[C@@H]1C[C@H]2C(C)(C)C(=O)C=C[C@]2(C)[C@H]2CC[C@@]3(C)[C@@H](c4ccoc4)OC(=O)[C@H]4O[C@]43[C@@]21C :: 37.3
CC1(C)C(=O)C=C[C@]2(C)[C@H]3CC[C@@]4(C)[C@@H](c5ccoc5)OC(=O)[C@H]5O[C@]54[C@]3(C)[C@H](OC(N)=O)C[C@@H]12 :: 9.79
CC(=O)O[C@@H]1C[C@H]2C(C)(C)C(O)C=C[C@]2(C)[C@H]2CC[C@@]3(C)C(c4ccoc4)OC(=O)[C@H]4O[C@]43[C@@]21C (single isomer, unassigned) :: 54.3

(a) CO[C@@H]1C[C@H]2C(C)(C)C(=O)C=C[C@]2(C)[C@H]2CC[C@@]3(C)[C@@H](c4ccoc4)OC(=O)[C@H]4O[C@]43[C@@]21C
(b) CC1(C)C(=O)C=C[C@]2(C)[C@H]3CC[C@@]4(C)[C@@H](c5ccoc5)OC(=O)[C@H]5O[C@]54[C@]3(C)C(=O)C[C@@H]12
Could you point out whether the larger IC50 belongs to a or to b ? Pick one; state its label. a

====

Catalogue of IC50 values
System: MCF7
test protocol: Antiproliferative activity against human MCF7 cells after 72 hrs
Format: functional, cell-based
condition details: MCF7, 72 h
Your answer is read as µM, so omit the unit and give the number.

CC1(C)C(=O)C=C[C@]2(C)[C@H]3CC[C@@]4(C)[C@H](c5ccoc5)OC(=O)[C@H]5O[C@]54[C@]3(C)[C@H](O)C[C@@H]12 :: 29

Proceeding to the next molecule to report its IC50.
Documented IC50 of CCO[C@@H]1C[C@H]2C(C)(C)C(=O)C=C[C@]2(C)[C@H]2CC[C@@]3(C)[C@@H](c4ccoc4)OC(=O)[C@H]4O[C@]43[C@@]21C : 14.8

====

Tested on: MCF7
test protocol: Antiproliferative activity against human MCF7 cells after 72 hrs
Format: functional, cell-based
condition details: MCF7, 72 h
pIC50: −log10 of the molar value.
metric name: pIC50

Some entries whose results are on file:
CC1(C)C(=O)C=C[C@]2(C)[C@H]3CC[C@@]4(C)[C@@H](c5ccoc5)OC(=O)[C@H]5O[C@]54[C@]3(C)[C@H](OCc3ccccc3)C[C@@H]12 :: < 4.00
CC(=O)O[C@@H]1C[C@H]2C(C)(C)C(=O)C3OC(C)(C)OC3[C@]2(C)[C@H]2CC[C@@]3(C)C(c4ccoc4)OC(=O)[C@H]4O[C@]43[C@@]21C (single isomer, unassigned) :: < 4.00

Proceeding to the next compound to report its pIC50.
Documented pIC50 of CCC(=O)O[C@@H]1C[C@H]2C(C)(C)C(=O)C=C[C@]2(C)[C@H]2CC[C@@]3(C)[C@@H](c4ccoc4)OC(=O)[C@H]4O[C@]43[C@@]21C : < 4.00
